The values you see were collected from patent US20150141411A1.

# maps each entry to its melting point
Where a name gives a salt, the structure may show the parent alone.
Give a bare numeral; the unit °C is implied.

Cc1cn(-c2ccc3n(c2=O)C[C@@H](C)N(Cc2cc(N4CCC(C)CC4)ccc2Cl)C3=O)cn1 (as salt: HCl) :: 235.1
Cc1cn(-c2ccc3n(c2=O)C[C@@H](C)N(Cc2cccc(N4CCCCC4)c2)C3=O)cn1 :: 108.2
Cc1cn(-c2ccc3n(c2=O)CCN(Cc2ccc(OC(F)(F)F)cc2C)C3=O)cn1 :: 214.1
Cc1cn(-c2ccc3n(c2=O)C[C@@H](C)N(Cc2cccc(Cl)c2C)C3=O)cn1 :: 182.1
Cc1cn(-c2ccc3n(c2=O)C[C@@H](C)N(Cc2cc(N4CCCCC4)cc(C(F)(F)F)c2)C3=O)cn1 (as salt: HCl) :: 185.3
Cc1cn(-c2ccc3n(c2=O)CCN(C2CC2c2ccc(Cl)cc2)C3=O)cn1 (stereo not drawn) :: 168.5
Cc1cn(-c2ccc3n(c2=O)C[C@@H](C)N(CC2(c4ccccc4C)CC2)C3=O)cn1 :: 199.8
Cc1ncn(-c2ccc3n(c2=O)CC(C)N(Cc2cc(C(F)(F)F)cc(C(F)(F)F)c2)C3=O)n1 (stereo not drawn) :: 160.9
Cc1cn(-c2ccc3n(c2=O)C[C@@H](C)N(Cc2cc(C(F)(F)F)ccc2F)C3=O)cn1 :: 108.5
Cc1cn(-c2ccc3n(c2=O)CCN(Cc2ccc(F)cc2C)C3=O)cn1 :: 227.4

We now examine a further compound.
Entry `Cc1cn(-c2ccc3n(c2=O)CCN(Cc2ccccc2C)C3=O)cn1` : reported melting point = ? 186.1

----------
target: γ-secretase (Homo sapiens, UniProt P49768); construct: endogenous in cells; host or cells: SKNBE2 human neuroblastoma cells (carrying hAPP 695 wild type as substrate); experiment: Screening for γ-secretase-modulating activity: Aβ42 in supernatant of SKNBE2 cells carrying hAPP 695 wild type (Alphalisa); type: cell-based; settings: SKNBE2 human neuroblastoma cells carrying hAPP 695 wild type, overnight incubation, Aβ42 in cell supernatant
pIC50: −log10 of the molar value.
Cut-off 7 on pIC50, inclusive. At or above means true; below means false.

# bool: pIC50 of COCC(c1cc(C(F)(F)F)cc(C(F)(F)F)c1)N1CCn2c(ccc(-n3cnc(C)c3)c2=O)C1=O (stereo not shown) >= 7 false

----------
Counter-ions that a name gives are not always drawn.
# maps each entry to its melting point
Give a bare numeral; the unit °C is implied.

Some entries whose results are on file:
Cc1cn(-c2ccc3n(c2=O)C[C@@H](C)N(CC2(c4ccc(Cl)cc4)CC2)C3=O)cn1 :: 157.4
Cc1cn(-c2ccc3n(c2=O)C[C@@H](C)N(Cc2ccc(F)c(F)c2)C3=O)cn1 :: 198.1
Cc1cn(-c2ccc3n(c2=O)C[C@@H](C)N(Cc2cc(CC(F)(F)F)cc(C(F)(F)F)c2)C3=O)cn1 (as salt: HCl) :: 136

We now examine a further molecule.
Entry `Cc1cn(-c2ccc3n(c2=O)CCN(Cc2cccc(C(F)(F)F)c2F)C3=O)cn1` : reported melting point = ? 197.6

----------
target: γ-secretase (Homo sapiens); construct: endogenous in cells; host or cells: SKNBE2 human neuroblastoma cells (carrying hAPP 695 wild type as substrate); assay: Screening for γ-secretase-modulating activity: Aβtotal in supernatant of SKNBE2 cells carrying hAPP 695 wild type (Alphalisa); assay type: cell-based; conditions: SKNBE2 human neuroblastoma cells carrying hAPP 695 wild type, overnight incubation, Aβtotal in cell supernatant
readout type: pIC50
# log scale: pIC50 equals minus log10 of the concentration in mol/L

Some entries whose results are on file:
Cc1cn(-c2ccc3n(c2=O)C[C@@H](C)N(Cc2cn(C)c4cc(F)c(C(F)(F)F)cc24)C3=O)cn1 :: 5.40
Cc1cn(-c2ccc3n(c2=O)CC(C)N(C(C)c2c[nH]c4cc(F)c(Cl)cc24)C3=O)cn1 (single isomer, unassigned) [compound 188] :: 5.34

Entry Cc1cn(-c2ccc3n(c2=O)CC(C)N(C(C)c2cn(C)c4c(F)cc(Cl)cc24)C3=O)cn1 (single isomer, unassigned) [compound 223] : reported pIC50 = ? 5.18
